Overview of recorded IC50 for various molecules
molecular target: Glycogen synthase kinase-3 beta (Oryctolagus cuniculus); assay: Inhibitory concentration against rabbit glycogen synthase kinase-3 beta using protein phosphatase inhibitor-2 as substrate
Your answer is read as nM, so omit the unit and give the number.

# example entries with known answers
CCn1cc(C2=C(c3cn(CCCO)c4ncccc34)C(=O)NC2=O)c2cccnc21	65
O=C1NC(=O)C(c2cn(CCCO)c3ncccc23)=C1c1cccc2ccccc12	31
O=C1NC(=O)C(c2cn(CCCO)c3ncccc23)=C1c1ccccn1	480
COc1ccccc1C1=C(c2cn(CCCNC=O)c3ncccc23)C(=O)NC1=O	8
COc1ccccc1C1=C(c2cn(CCCNS(C)(=O)=O)c3ncccc23)C(=O)NC1=O	14
COc1ccccc1C1=C(c2cn(CCCNS(N)(=O)=O)c3ncccc23)C(=O)NC1=O	20

Supply reported IC50 belonging to this molecule: `O=C1NC(=O)C(c2cn(CCCO)c3ncccc23)=C1c1ccc(F)cc1Cl` 6
